Test system: TK-10 renal
Experiment: NCI-60 one-dose screen, 48 h (100 = growth as untreated, 0 = no growth, -100 = all killed)
Settings: 1 µM
This is part of a sample that, as a whole, favours compounds with a hit. Of some 83,000 tested, about 20% had one in any assay.
MEASURED QUANTITY: growth (%)

MOLECULE SMILES	QUANTITATIVE READOUT
CC/C(=C(/c1ccc(O)cc1)c1ccc(OCCN(C)C(=O)CCOCCNC(=O)Cc2ccc3c(c2)CN([C@@H]2CCC(=O)NC2=O)C3=O)cc1)c1ccccc1	94
CC/C(=C(\c1ccc(O)cc1)c1ccc(OCCNC)cc1)c1ccccc1	91.2
CC/C(=C(/c1ccc(O)cc1)c1ccc(OCCN(C)C(=O)COCCOCCNC(=O)Cc2ccc3c(c2)CN([C@@H]2CCC(=O)NC2=O)C3=O)cc1)c1ccccc1	101
CC/C(=C(\c1ccc(O)cc1)c1ccc(OCCN(C)C(=O)CCOCCNC(=O)c2ccc3c(c2)CN([C@@H]2CCC(=O)NC2=O)C3=O)cc1)c1ccccc1	99
CC/C(=C(/c1ccc(O)cc1)c1ccc(OCCN(C)C(=O)COCCOCCNC(=O)c2ccc3c(c2)CN([C@@H]2CCC(=O)NC2=O)C3=O)cc1)c1ccccc1	99.1
